Target: SCD5 (Homo sapiens)
Construct: host or cells: S. cerevisiae ole1Δ strain (W303 pdr1Δ pdr3Δ background), plasmid pRS316 with TDH3 promoter and CYC1 terminator
Sequence (Q86SK9 1-330): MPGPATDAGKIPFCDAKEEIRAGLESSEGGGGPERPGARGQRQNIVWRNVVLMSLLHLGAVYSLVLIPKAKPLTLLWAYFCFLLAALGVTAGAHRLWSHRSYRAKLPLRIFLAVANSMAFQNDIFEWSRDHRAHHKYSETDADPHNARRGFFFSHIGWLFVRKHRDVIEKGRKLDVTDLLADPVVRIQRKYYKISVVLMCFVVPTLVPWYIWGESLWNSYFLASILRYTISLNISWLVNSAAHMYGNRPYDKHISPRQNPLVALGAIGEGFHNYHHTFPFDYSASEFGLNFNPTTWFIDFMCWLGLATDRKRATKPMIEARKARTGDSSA
Experiment: Growth inhibition of humanized yeast strain expressing SCD5 as sole desaturase
Type: cell-based
Conditions: humanized yeast strain, 40 h
IC50 reference
Expressed in nM, but write only the number.

CC(C)(C)OC(=O)N1CCC(c2cc(-c3cc4c(cn3)cnn4C3COC3)no2)CC1 | 10

Fill in: IC50 of CC(C)(C)OC(=O)N1CCCC(c2noc(-c3ccc4cnn(C5COC5)c4c3)n2)CC1 (stereo not shown) is ___
10

Fill in: IC50 of COC(=O)N1CCC(c2cc(-c3cc4c(cn3)cnn4C(C)C)no2)CC1 is ___
2520

###

Molecular target: SCD5 (Homo sapiens, UniProt Q86SK9)
Construct: host or cells: S. cerevisiae ole1Δ strain (W303 pdr1Δ pdr3Δ background), plasmid pRS316 with TDH3 promoter and CYC1 terminator
Assay: Growth inhibition of humanized yeast strain expressing SCD5 as sole desaturase
Format: cell-based
Conditions: humanized yeast strain expressing SCD5
Entry flag: YES if SCD5 % Max Inhibition reaches 60%; NO if it does not.

As a guide, the following entries are already answered.
COc1ccc(CN2CC(C(=O)N3CCC(c4nc(-c5ccc6c(C)nn(C)c6c5)no4)CC3)CC2=O)c(OC)c1 (stereo not shown) | YES
CC(C)(C)OC(=O)N1CCC(c2nc(-c3ccc4cnn(C5CC5)c4c3)no2)CC1 | NO
CC(C)n1ncc2ccc(-c3noc(N4CCN(C(=O)c5ccccc5)CC4)n3)cc21 | NO
CCN1C(=O)COc2ccc(-c3noc(C4(c5ccc(OC)cc5)CC4)n3)cc21 | YES
Cc1nn(C)c2cc(-c3noc(C4CCN(C(=O)CNC(=O)c5cc(Cl)ccc5C(F)(F)F)CC4)n3)ccc12 | YES
COc1ccc(-c2noc(C3CCN(CCNC(=O)c4ccccc4)CC3)n2)cc1OC | YES

Is SCD5 % Max Inhibition at least 60%? Consider Cn1c(=O)n(C)c2cc(-c3noc(C4CCN(C(=O)CNC(=O)c5ccncc5)CC4)n3)ccc21
YES

Is SCD5 % Max Inhibition at least 60%? Consider Cc1ccc(N2CC(C(=O)N3CCC(c4nc(N5CC6(COC6)C5)no4)CC3)CC2=O)nc1 (stereo not shown)
YES

Is SCD5 % Max Inhibition at least 60%? Consider CCOC(=O)C(C)(C)n1ncc2ccc(-c3noc(C4CCN(C(=O)C5CC(=O)N(c6ccccc6)C5)CC4)n3)cc21 (stereo not shown)
YES

Is SCD5 % Max Inhibition at least 60%? Consider CC(C)c1cccc(C(=O)N2CCC(c3nc(-c4ccc5cnn(C)c5c4)no3)CC2)c1
NO

Is SCD5 % Max Inhibition at least 60%? Consider Cc1nn(C)c2cc(-c3noc(C4CCN(C(=O)c5ccccc5)CC4)n3)ccc12
NO

Is SCD5 % Max Inhibition at least 60%? Consider O=C([C@H]1CC(=O)N(c2ccccc2)C1)N1CCC(c2nc(-c3ccc(Br)s3)no2)CC1
NO

Is SCD5 % Max Inhibition at least 60%? Consider CCn1nc(C)c2ccc(-c3noc(C4CCN(C(=O)OC(C)(C)C)CC4)n3)cc21
NO

###

Biological target: SCD5 (Homo sapiens)
Construct: host or cells: S. cerevisiae ole1Δ strain (W303 pdr1Δ pdr3Δ background), plasmid pRS316 with TDH3 promoter and CYC1 terminator
Assay: Growth inhibition of humanized yeast strain expressing SCD5 as sole desaturase
Assay type: cell-based
Conditions: humanized yeast strain, 40 h
Procedure: Strain oleΔ (yeast ole1 deletion mutant) was constructed by deleting OLE1 with NAT-MX6 in BY4741, amplifying the deletion cassette from the genomic DNA of the resulting strain with primers flanking the ORF by 1000 bp upstream and downstream, transforming the resulting deletion cassette into W303 pdr1Δ pdr3Δ, and plating transformants on YPD media containing G418 (200 μg/mL) and nourseothricin ([…]) with 0.01% TWEEN®-20 and 0.5 mM oleic and palmitoleic acids. […]
IC50 reference
Expressed in µM, but write only the number.

Here is how some molecules turned out for IC50.
CC(C)(C)OC(=O)N1CCC(c2noc(-c3ccnc(C4CCCO4)c3)n2)CC1 (centres unmarked) [Compound 1003] | 0.457
O=C(CC1CC1)N1CCC(c2noc(-c3ccc4cnn(C5CCOC5)c4c3)n2)CC1 (centres unmarked) [Compound 974] | 0.01

Fill in: IC50 of O=C(N1CCC(c2noc(-c3ccc4cnn(C5COC5)c4c3)n2)CC1)C12CC(C1)C2 [Compound 890] is ___
0.01

Fill in: IC50 of CC(C)n1ncc2ccc(-c3noc(N4CCN(C(=O)CC5CC5)CC4)n3)cc21 [Compound 869] is ___
1.64

Fill in: IC50 of CC(C)C(=O)N1CCC(c2noc(-c3ccc4cnn(C5CCOC5)c4c3)n2)CC1 (centres unmarked) [Compound 1024] is ___
0.01

Fill in: IC50 of CC(C)(C)OC(=O)N1CCN(c2noc(-c3cccc(C4CCCO4)c3)n2)CC1 (centres unmarked) [Compound 785] is ___
0.041

Fill in: IC50 of COC(=O)N1CCC(c2noc(-c3ccc4cnn(C5CS(=O)(=O)C5)c4c3)n2)CC1 [Compound 1000] is ___
0.65

Fill in: IC50 of CC1(C(=O)N2CCC(c3noc(-c4ccnc(C5CCOC5)c4)n3)CC2)CCC1 (centres unmarked) [Compound 1179] is ___
0.11

Fill in: IC50 of CC(C)C(=O)N1CCC(c2noc(-c3ccnc(N4CCC(F)(F)C4)c3)n2)CC1 [Compound 1170] is ___
0.402

Fill in: IC50 of COC(=O)N1CCC(c2noc(-c3cccc(N4CCOCC4)c3)n2)CC1 [Compound 983] is ___
1.51

Fill in: IC50 of CC(C)(C)OC(=O)N1CCC(c2noc(-c3ccnc(CC4CC4)c3)n2)CC1 [Compound 1082] is ___
0.359

Fill in: IC50 of COC(=O)N1CCC(c2noc(-c3ccn4cnc(C(C)C)c4c3)n2)CC1 [Compound 1045] is ___
0.935

Fill in: IC50 of CC(C)(C)OC(=O)N1CCC(c2noc(-c3cccc(C4CCCO4)c3)n2)CC1 (centres unmarked) [Compound 812] is ___
0.01

Fill in: IC50 of COC(=O)N1CCN(c2noc(-c3ccc4cnn(C5CNC5)c4c3)n2)CC1 [Compound 946] is ___
4.11

Fill in: IC50 of COC(=O)N1CCC(c2noc(-c3ccc4cnn(C5COC5)c4c3F)n2)CC1 [Compound 1004] is ___
0.297

###

Target: SCD5 (Homo sapiens)
Construct: host or cells: S. cerevisiae ole1Δ strain (W303 pdr1Δ pdr3Δ background), plasmid pRS316 with TDH3 promoter and CYC1 terminator
Assay: Growth inhibition of humanized yeast strain expressing SCD5 as sole desaturase
Type: cell-based
Conditions: humanized yeast strain expressing SCD5
MEASURE: IC50

CC(C)(CO)n1ncc2ccc(-c3noc(C4CCN(C(=O)CNC(=O)c5ccccc5)CC4)n3)cc21 | > 45 µM

Fill in: IC50 of CCOc1ccc(-c2noc(C3CCN(C(=O)CNC(=O)c4ccccc4)CC3)n2)cc1OC is ___
33.8 µM

Fill in: IC50 of COc1ccnc(C(=O)NCC(=O)N2CCC(c3nc(-c4ccc5c(C)nn(C)c5c4)no3)CC2)c1 is ___
> 45 µM

Fill in: IC50 of COc1ccc(-c2coc(C3CCN(C(=O)CNC(=O)c4ccccc4)CC3)n2)cc1OC is ___
> 45 µM

###

Target: Ole1 (Saccharomyces cerevisiae)
Construct: expressed in transfected cells; host or cells: S. cerevisiae ole1Δ strain (W303 pdr1Δ pdr3Δ background), plasmid pRS316 with TDH3 promoter and CYC1 terminator
Sequence (P21147 whole entry): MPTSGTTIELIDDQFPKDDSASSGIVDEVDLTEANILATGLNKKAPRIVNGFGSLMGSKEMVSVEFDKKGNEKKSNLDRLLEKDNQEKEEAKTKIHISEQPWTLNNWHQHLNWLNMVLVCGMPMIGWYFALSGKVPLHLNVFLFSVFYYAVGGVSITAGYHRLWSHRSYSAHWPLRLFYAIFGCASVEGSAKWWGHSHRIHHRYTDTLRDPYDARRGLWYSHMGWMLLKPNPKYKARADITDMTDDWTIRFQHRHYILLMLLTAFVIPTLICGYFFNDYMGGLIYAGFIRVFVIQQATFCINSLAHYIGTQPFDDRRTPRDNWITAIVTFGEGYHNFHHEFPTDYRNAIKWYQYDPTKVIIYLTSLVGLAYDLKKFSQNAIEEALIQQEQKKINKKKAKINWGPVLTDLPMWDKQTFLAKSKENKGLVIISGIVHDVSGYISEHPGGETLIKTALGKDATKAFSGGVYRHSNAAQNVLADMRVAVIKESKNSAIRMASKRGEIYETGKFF
Assay: Growth inhibition of yeast strain expressing Ole1 as sole desaturase
Format: cell-based
Details: yeast strain expressing Ole1 as sole desaturase
Response field class: enum, chosen by comparing OLE1 % Max Inhibition against LOW = under 10%, MID = from 10% up to 90%, HIGH = 90% and over

O=C(C1CC(=O)N(c2ccccc2)C1)N1CCC(c2nc(-c3ccc4nonc4c3)no2)CC1 (stereo not shown) [Compound 164] | HIGH

Which category fits this record: Cc1nn(C)c2cc(-c3noc(N4CCN(C(=O)c5cc(F)ccc5Cl)CC4)n3)ccc12 [Compound 278]
MID

Which category fits this record: COc1ccc(-c2noc(C3CCN(C(=O)CNC(=O)c4ccccc4)CC3)n2)cc1OC(C)C [Compound 274]
MID

Which category fits this record: Cc1nn(C)c2nc(-c3noc(C4CCN(C(=O)C5CC(=O)N(c6ccccc6)C5)CC4)n3)ccc12 (stereo not shown) [Compound 116]
MID

Which category fits this record: CC(C)n1cc2ccc(-c3noc(C4CCN(C(=O)C5CC(=O)N(c6ccccc6)C5)CC4)n3)cc2n1 (stereo not shown) [Compound 180]
HIGH

Which category fits this record: Cc1nn(C(C)C)c2cc(-c3noc(C4CCN(C(=O)OC(C)(C)C)CC4)n3)ccc12 [Compound 343]
MID
